assay.name: NCI Yeast Anticancer Drug Screen. Data for the CLN2oe strain (AID 163);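 further: 0% = growth of vehicle-only control cultures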
condition.context: S. cerevisiae CLN2oe strain, at 11.0 µM, active compounds read high
The panel holds about 79,000 compounds, 15% with a hit somewhere; the sample as a whole holds those more often.
This listing pairs molecules with measured growth inhibition.
quantity.kind: growth inhibition (%)

• CSc1s[s+]c(SC)c1-c1ccccc1 = 4
• O=S1(=O)c2ccccc2N=C(c2ccccc2Cl)CC1c1ccc(F)cc1 (configuration not stated) = -10
• N#C/C(=C\c1ccccc1)c1ccccc1F = 11
• CCOC(=O)[C@]1(Br)CC[C@@]1(Br)C(=O)OCC = 15
• Cc1ccc(S(=O)(=O)N(C)c2ccc(Cl)cc2C2=NCCc3ccccc32)cc1 = 18
• COc1ccc(/C=C(\NC(=O)c2ccccc2)C(=O)NN(C)c2ccnc3cc(Cl)ccc23)cc1OC = 38
• S=C1SCN(CCc2ccccc2)CN1CCc1ccccc1 = 25
• C=C1N(C)c2ccc(Cl)cc2C1(C)C = -22
• CN(C)CC1CCCc2ccccc2C1=O (configuration not stated) = 22
• COc1ccc(N)c2c1C(=O)c1ccccc1C2=O = 17
• CCC(C)(c1ccc(O)c(C)c1)c1ccc(O)c(C)c1 = 45
• O=C1c2ccccc2C(=O)c2cc(S(=O)(=O)Nc3ccccc3)ccc21 = 5

====

assay.name: NCI Yeast Anticancer Drug Screen. Data for the cln2 rad14 strain (AID 165);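 further: 0% = growth equal to vehicle treated cultures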
condition.context: S. cerevisiae cln2 rad14 strain, at 50.0 µM (retest, dose inferred, filed as 5.0)
Compounds without any hit were thinned out: in the full panel of roughly 79,000, 15% have a hit. Active and inactive are the calls of the source. No stated cut-off is given here; in the data, active means growth inhibition above about 70%; inactive means the rest.
Labels: TRUE (active), FALSE (inactive)

- OCCNCCOc1ccc(/C(=C(/Cl)c2ccccc2)c2ccccc2)cc1: TRUE
- C/C(=N\NC(=S)NC1CCCC1)c1ccccn1: TRUE
- CCN(CC)CC(O)C1CCC(c2ccccc2)CC1 (stereo unspecified): TRUE
- O=C1C=CC(=O)N1c1ccc(N2C(=O)C=CC2=O)cc1: TRUE
- CN(C)CCN1C(=O)c2cccc3cc([N+](=O)[O-])cc(c23)C1=O: FALSE
- COC(=O)CSc1nnc(CSc2ccc(Cl)cc2)n1-c1ccccc1: FALSE

====

assay.name: NCI Yeast Anticancer Drug Screen. Data for the rad50 strain (AID 155);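 further: 0% = growth of vehicle-only cultures of the same strain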
condition.context: S. cerevisiae rad50 strain growth inhibition; at 33.0 µM; active compounds read high
This is part of a sample that, as a whole, favours compounds with a hit. Of some 79,000 tested, about 15% had one in any assay. Activity calls are given as the source filed them. No stated cut-off is given here; in the data, active means growth inhibition above about 70%; inactive means the rest.
This listing pairs compounds with measured growth inhibition.
quantity.kind: growth inhibition

* C=C(CCCO)[C@@H]1CC[C@@](C)(O)[C@H]1C | -17% (inactive)
* C/C(=N\NC(=S)NNC(=S)N(C)c1ccccc1)c1ccccn1 | 97% (active)
* O=C1C=CC(=O)N1c1ccc2c(c1)OCO2 | 99% (active)
* CCCCCC#CCOC(=O)C(=[N+]=[N-])P(=O)(c1ccccc1)c1ccccc1 | 13% (inactive)
* COc1ccc2oc(-c3ccc(Cl)cc3)c(N3CCN(C)CC3)c2c1 | 99% (active)
* CCOc1ccc(C(=O)CCC(=O)O)c(C)c1 | 8% (inactive)
* S=C1SCN(CCc2ccccc2)CN1CCc1ccccc1 | 64% (inactive)
* CCCCCCSc1nc(COC(=O)NC)c(COC(=O)NC)n1C | 54% (inactive)
* CC1=CCC(C(C)(C)c2ccc(O)cc2)CC1 (configuration not stated) | 96% (active)
* CCCc1[nH]nc(C(N)=O)c1N=NN(C)C | 83% (active)
* O=[N+]([O-])c1cc(S(=O)(=O)Nc2ccccc2)ccc1Cl | 90% (active)
* CC1C(C#N)(C#N)C(C#N)=C(N)C1(Cl)[N+](=O)[O-] (configuration not stated) | 40% (inactive)
